# measuredTarget: human ether-à-go-go-related gene (hERG) potassium channel (human);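 also: peak tail current of the secondary pulse compared with the same well before compound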
# Sequence (Q12809 whole entry, looked up): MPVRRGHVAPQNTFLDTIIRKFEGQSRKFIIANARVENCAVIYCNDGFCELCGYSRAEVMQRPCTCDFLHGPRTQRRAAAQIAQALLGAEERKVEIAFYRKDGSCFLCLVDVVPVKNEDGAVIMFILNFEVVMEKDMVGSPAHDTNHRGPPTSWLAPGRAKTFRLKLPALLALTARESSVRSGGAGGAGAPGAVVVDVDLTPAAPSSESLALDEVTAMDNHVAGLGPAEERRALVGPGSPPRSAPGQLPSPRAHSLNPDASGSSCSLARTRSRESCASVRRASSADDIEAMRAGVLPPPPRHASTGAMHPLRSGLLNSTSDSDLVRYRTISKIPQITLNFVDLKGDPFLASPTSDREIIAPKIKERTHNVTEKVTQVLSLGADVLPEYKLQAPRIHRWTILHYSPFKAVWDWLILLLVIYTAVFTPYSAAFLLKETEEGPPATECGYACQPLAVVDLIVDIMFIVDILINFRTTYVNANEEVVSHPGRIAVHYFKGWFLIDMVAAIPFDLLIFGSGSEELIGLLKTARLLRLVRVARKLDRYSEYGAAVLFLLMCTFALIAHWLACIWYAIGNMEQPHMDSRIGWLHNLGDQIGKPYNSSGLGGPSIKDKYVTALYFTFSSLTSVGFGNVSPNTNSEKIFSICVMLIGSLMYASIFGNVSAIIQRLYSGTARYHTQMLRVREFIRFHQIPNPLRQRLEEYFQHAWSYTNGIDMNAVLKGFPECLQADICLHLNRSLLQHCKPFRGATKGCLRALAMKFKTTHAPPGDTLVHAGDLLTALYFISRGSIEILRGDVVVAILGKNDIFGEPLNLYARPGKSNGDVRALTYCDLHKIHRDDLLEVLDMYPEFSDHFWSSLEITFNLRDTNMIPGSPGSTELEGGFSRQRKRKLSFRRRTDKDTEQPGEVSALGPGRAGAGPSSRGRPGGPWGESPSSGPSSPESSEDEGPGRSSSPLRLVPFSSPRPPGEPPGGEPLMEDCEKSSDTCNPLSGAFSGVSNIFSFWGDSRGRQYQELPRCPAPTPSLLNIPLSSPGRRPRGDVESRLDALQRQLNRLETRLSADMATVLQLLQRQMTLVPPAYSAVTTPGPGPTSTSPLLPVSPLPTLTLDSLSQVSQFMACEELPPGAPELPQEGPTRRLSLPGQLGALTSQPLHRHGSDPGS
# assayProtocol: primary screen, population patch clamp on CHO cells stably expressing hERG; higher = less effect of the substance
In all, about 310,000 compounds went through this assay and about 14,000 (4.5%) showed an effect of 50% or more. Effects have a minus sign here. Many of the other results were omitted from the sample, so strong results are more common in it than they were.
Each entry gets rule not met if its hERG current change (%, negative = inhibition) at 10uM stays under -20%, and rule met if its hERG current change (%, negative = inhibition) at 10uM is -20% or above.

Below, 4 molecules whose answers are already recorded.
>>> categorylabel("O=C1c2ccccc2C(Nc2ccc(S(=O)(=O)N3CCCCC3)cc2)N1Cc1ccco1 (centres unmarked)")
"rule not met"
>>> categorylabel("Cc1ccccc1-n1c(-c2ccco2)nc2ccccc2c1=O")
"rule met"
>>> categorylabel("Nn1c(SCC(=O)Nc2ccc(F)cc2)nnc1-c1ccccn1")
"rule not met"
>>> categorylabel("C=CCn1c(SCC(=O)Nc2ccc(F)cc2)nnc1-c1cnccn1")
"rule not met"

Check if hERG current change (%, negative = inhibition) at 10uM >= -20% (inclusive). Item: Cc1cccc(NC(=O)CSc2nnc(-c3cc(C)[nH]n3)n2N)c1
rule not met
